// data source = patent US20060069132A1

Record form. Attribute: Sedge, Umbrella plant response rating. Fill in for each entry.
# System: small flower umbrella sedge
# PROCEDURE_SUMMARY: Test B flooded paddy test
# Type: in vivo, Cyperus difformis
# COND: 1000 g ai/ha, scale 0 to 100 (0 no effect, 100 complete control)
Response field accepts a number only; no unit should be typed.

Input CCn1nc(C2(C)CC2)cc1C(=O)Nc1cccc(C(=O)N(C)C)c1 [Compound 303] . Output Sedge, Umbrella plant response rating: 90

The measured Sedge, Umbrella plant response rating associated with CCc1nn(C(C)(C)CC)nc1C(=O)Nc1cc(C(=O)N(C)C)ccc1F [Compound 368] reads 80

Sedge, Umbrella plant response rating in this record for CCC1=NN(C(C)(C)C)CC1C(=O)Nc1cc(C(=O)N(C)C)ccc1F (racemic) [Compound 343] : 90

Measured Sedge, Umbrella plant response rating, CCNC(=O)c1ccc(F)c(NC(=O)c2nn(C(C)(C)C)nc2C)c1 [Compound 377] : 80

Sure, the documented Sedge, Umbrella plant response rating for CCOC(=O)c1ccc(F)c(NC(=O)c2nn(C(C)(C)CC)nc2CC)c1 [Compound 373] is 20

According to the records, this molecule CCc1nn(C(C)C)nc1C(=S)Nc1cccc(C(=S)N(C)C)c1 [Compound 410] displays Sedge, Umbrella plant response rating of 80

Entry CCn1nc(C(C)(C)C)cc1C(=O)Nc1cc(C(=S)N(C)C)ccc1F [Compound 294] — recorded Sedge, Umbrella plant response rating = 80

Reported Sedge, Umbrella plant response rating of CCOC(=O)c1ccc(F)c(NC(=O)C2CN(C(C)(C)C)N=C2CC)c1 (racemic) [Compound 335] : 80

Sedge, Umbrella plant response rating recorded for this molecule, CCn1nc(C(C)(C)C)cc1C(=O)Nc1cccc(OC(F)F)c1 [Compound 332] , is 90

The molecule identified as CCn1nc(C(C)(C)C)cc1C(=O)Nc1cc(C(=O)N(C)C)c(F)cc1F [Compound 270] registered its Sedge, Umbrella plant response rating at 60

Please fill in: Sedge, Umbrella plant response rating reported for CCc1nn(C(C)(C)C)nc1C(=S)Nc1cccc(C(=S)N(C)C)c1 [Compound 396] = 80

// sample C#CCNC(=O)c1cccc(NC(=O)c2nn(C(C)(C)C)nc2C)c1 [Compound 394] , its Sedge, Umbrella plant response rating was 90

Sure, the documented Sedge, Umbrella plant response rating for CCNC(=O)c1ccc(F)c(NC(=O)c2cn(C(C)(C)C)nc2C)c1 [Compound 345] is 80

* * *

# Tested on: giant foxtail
# PROCEDURE_SUMMARY: Test C pre-/postemergence herbicide test
# Type: in vivo, Setaria faberi
# COND: 125 g ai/ha; preemergence
ENDPOINT_LABEL: Plant response rating (0 = no effect, 100 = complete control), Foxtail, Giant
Provide a numeric answer; units are not to be included.

Field Plant response rating (0 = no effect, 100 = complete control), Foxtail, Giant (giant foxtail), entry CCc1nn(C(C)(C)C)nc1C(=O)Nc1cccc(C(=O)N(C)CC)c1 [Compound 384] : 100

Record CCc1nn(C(C)(C)C)nc1C(=O)Nc1cccc(C(=S)N(C)C)c1 [Compound 395] has giant foxtail Plant response rating (0 = no effect, 100 = complete control), Foxtail, Giant equal to 100

Query CCC1=NN(C(C)(C)C)CC1C(=O)Nc1cc(C(=O)N(C)C)ccc1F (racemic) [Compound 343] on giant foxtail; Plant response rating (0 = no effect, 100 = complete control), Foxtail, Giant returned: 50

Measured Plant response rating (0 = no effect, 100 = complete control), Foxtail, Giant (giant foxtail), entry Cc1nn(C(C)(C)C)nc1C(=O)Nc1cccc(C(=O)N2CC=CC2)c1 [Compound 393] : 90

* * *

# Tested on: small flower umbrella sedge
# PROCEDURE_SUMMARY: Test B flooded paddy test
# Assay type: in vivo, Cyperus difformis
# COND: 1000 g ai/ha, visual rating, scale 0 to 100 (0 no effect, 100 complete control), 13 to 15 days
# Experimental: At the same time, plants selected from these crop and weed species and also blackgrass (Alopecurus myosuroides Huds.), wheat (Triticum aestivum L.) and wild oat (Avena fatua L.) were treated with postemergence applications of test chemicals formulated in the same manner. […] Treated plants and controls were maintained in a greenhouse for 13 to 15 days, after which time all species were compared to controls and visually evaluated. […]
ENDPOINT_LABEL: Sedge, Umbrella plant response rating
Write no unit; give the number alone.

Value (Sedge, Umbrella plant response rating, small flower umbrella sedge) for record CCn1nc(C(C)(C)C)cc1C(=O)Nc1cccc([S+]([O-])C(F)(F)F)c1 (stereo not shown) = 70

Entry CCN(CC)C(=O)c1cccc(NC(=O)c2nn(C(C)(C)C)cc2Br)c1 , tested on small flower umbrella sedge, has a reported Sedge, Umbrella plant response rating of 80

Assay small flower umbrella sedge, sample C=CCNC(=O)c1cccc(NC(=O)c2cc(C(C)(C)C)nn2CC)c1 , Sedge, Umbrella plant response rating read: 80

Summary line: CCN(CC)C(=O)c1cccc(NC(=O)c2cn(C(C)(C)C)nc2C(F)(F)F)c1 , small flower umbrella sedge, reported Sedge, Umbrella plant response rating = 90

* * *

# System: cocklebur
# PROCEDURE_SUMMARY: Test B pre-/postemergence herbicide test
# Type: in vivo, Xanthium strumarium
# COND: postemergence, 500 g ai/ha; scale 0 to 100, 0 is no effect, 100 is complete control
// classify: if (Cocklebur plant response rating < 20) 1 else 0

### Prompt Item CCn1nc(C2(C)CC2)cc1C(=O)Nc1cccc(C(=O)N(C)C)c1 [Compound 303] : Cocklebur plant response rating beneath 20, strictly?
### Response 0

### Prompt Hi there! Is Cocklebur plant response rating for CCn1nc(C(C)(C)C)cc1C(=O)Nc1cc(C(=O)N(C)C)c(F)cc1F [Compound 270] below 20, do you know?
### Response 1

### Prompt Dear reviewer, please state whether CCOC(=O)c1cccc(NC(=O)c2cc(C(C)(C)C)nn2C)n1 [Compound 313] has Cocklebur plant response rating strictly beneath 20.
### Response 0

### Prompt For CCn1nc(C(C)(C)C)c(F)c1C(=O)Nc1cccc(C(=O)N(C)C)n1 [Compound 274] , is the recorded Cocklebur plant response rating below the cut-off of 20?
### Response 1

* * *

# Test system: velvetleaf
# PROCEDURE_SUMMARY: Test B pre-/postemergence herbicide test
# Assay type: in vivo, Abutilon theophrasti
# COND: preemergence, 125 g ai/ha; 0 to 100 scale, 0 is no effect, 100 is complete control
ENDPOINT_LABEL: Plant response rating, Velvetleaf
Lab note: record the figure alone, no unit after it.

What the record says about CCN(CC)C(=O)c1cc(NC(=O)c2cc(C(C)(C)C)nn2CC)ccc1F : Plant response rating, Velvetleaf is 10

Entry C#CCNC(=O)c1cccc(NC(=O)c2cc(C(C)(C)C)nn2CC)c1 — recorded Plant response rating, Velvetleaf = 30

Plant response rating, Velvetleaf reported for this compound CC(=NO)c1cc(NC(=O)c2cc(C(C)(C)C)nn2C)ccc1F : 20

Item: C=Cn1nc(C(C)(C)C)cc1C(=O)Nc1cccc(C(C)=NO)c1 | Plant response rating, Velvetleaf: 40

Recorded Plant response rating, Velvetleaf (compound CCCCNS(=O)(=O)c1cccc(NC(=O)c2cc(C(C)(C)C)nn2C)c1 ): 0

What the record says about CCn1nc(C(C)(C)C)cc1C(=O)Nc1cccc2c1CCN(C1CC1)C2=O : Plant response rating, Velvetleaf is 0

Value of Plant response rating, Velvetleaf reported for the compound CCn1nc(C(C)(C)C)cc1C(=O)Nc1cccc(SC(F)(F)F)c1 is 10

In plain terms, C#CCn1nc(C(C)(C)C)cc1C(=O)Nc1cccc(C(=O)NCC)c1 has a documented Plant response rating, Velvetleaf of 20

Record summary for CCOC(=O)c1cccc(NC(=O)c2cc(C(C)(C)C)nn2CC)c1OC : reported Plant response rating, Velvetleaf = 0

* * *

# Test system: velvetleaf
# PROCEDURE_SUMMARY: Test A pre-/postemergence herbicide test
# Format: in vivo, Abutilon theophrasti
# COND: Preemergence, 2000 g ai/ha; visual rating, 0 to 100 scale (0 no effect, 100 complete control)
// classify: if (Velvetleaf plant response rating < 60) 1 (yes) else 0 (no)

### Prompt Threshold test, Velvetleaf plant response rating < 60: CCOC(=O)c1cncc(NC(=O)c2cc(C(C)(C)C)nn2CC)c1 [Compound 255]
### Response 1 (yes)

### Prompt Determine whether this molecule shows Velvetleaf plant response rating lower than 60 (ties excluded): CCOC(=O)c1cccc(NC(=O)c2cc(C(C)(C)C)nn2CC)c1C [Compound 88]
### Response 0 (no)

### Prompt Velvetleaf plant response rating strictly < 60 for this molecule? CCCOC(=O)c1cccc(NC(=O)c2cc(C(C)(C)C)nn2CC)c1C [Compound 90]
### Response 1 (yes)

### Prompt Does the reported Velvetleaf plant response rating of the following molecule sit strictly below 60? CCc1nc(C(C)(C)C)sc1C(=O)Nc1cccc(C(=O)NCC(C)C)c1 [Compound 211]
### Response 0 (no)

### Prompt Threshold test, Velvetleaf plant response rating < 60: CC(=NO)c1cccc(NC(=O)c2sc(C(C)(C)C)nc2C)c1 [Compound 195]
### Response 1 (yes)

### Prompt Find out if reported Velvetleaf plant response rating for CCNC(=O)c1cccc(NC(=O)c2sc(C(C)(C)C)nc2CC)c1 [Compound 210] is less than 60
### Response 0 (no)

### Prompt In plain terms, does CC(=NO)c1cccc(NC(=O)c2cc(C(C)(C)C)nn2CCF)c1 [Compound 115] come in under 60 for Velvetleaf plant response rating?
### Response 0 (no)

### Prompt Item CCOC(=O)c1ccc(F)c(NC(=O)c2cc(C(C)(C)C)nn2CC)c1 [Compound 70] : Velvetleaf plant response rating beneath 60, strictly?
### Response 1 (yes)

### Prompt Just wondering, is Velvetleaf plant response rating of COC(=O)c1cccc(NC(=O)c2sc(C(C)(C)C)nc2C)c1 [Compound 197] below 60?
### Response 1 (yes)
